- Tested on: S. pyogenes
- EXPERIMENT NOTES: Antibacterial activity: Minimum Inhibitory Concentration
- Type: cell-based, Streptococcus pyogenes NCTC 8198
- TEST CONTEXT: Streptococcus pyogenes, Day 2, 37° C., 24 hours
- Procedure: The antimicrobial activity was determined by inoculation of the test microorganism into suitable growth media containing solutions of the compounds at concentrations of 100, 50, 10, 5, 1.0, 0.5 and 0.1 μg/ml. […] After incubation the antimicrobial activity was recorded as the Minimal Inhibitory Concentration (M.I.C.), i.e., the lowest concentration preventing macroscopically visible growth, for each test compound against each organism. […]
REPORTED METRIC: MIC

Query: Entry CCCCCCCCCCCCn1c(C)cc(C)[n+]1C : reported MIC = ?
Reply: 0.5 µg/mL

Query: Next record, please: CCCCCCCCCCCC[n+]1c(C)cc(C)n1Cc1ccc(Cl)cc1Cl.[Br-]
Reply: 0.5 µg/mL

Query: Next record, please: CCCCCCCCCCCCCCn1ccc[n+]1C
Reply: 0.5 µg/mL

Query: Next record, please: CCCCCCCCCCCC[n+]1c(C)cc(C)n1Cc1ccc(Cl)cc1.[Br-]
Reply: 0.5 µg/mL

Query: Next record, please: CCCCCCCCCCCCCC[n+]1c(C)cc(C)n1Cc1ccc([N+](=O)[O-])cc1.[Br-]
Reply: 1 µg/mL

Query: Next record, please: CCCCCCCCCCCCCCCCn1c(C)cc(C)[n+]1C
Reply: 0.5 µg/mL

Query: Next record, please: CCCCCCCCCCCCCCCCn1ccc[n+]1C
Reply: 0.5 µg/mL

Query: Next record, please: C=CCn1c(C)cc(C)[n+]1CCCCCCCCCCCCCCCC.[Br-]
Reply: 0.5 µg/mL

Query: Next record, please: CCCCCCCCCCCCn1ccc[n+]1C
Reply: 5 µg/mL

---

- Tested on: S. schenkii
- EXPERIMENT NOTES: Antifungal activity: Minimum Inhibitory Concentration
- Format: cell-based, Sporotrichon schenkii NCPF 3182
- TEST CONTEXT: S. schenkii, Day 1; 27° C., one week; read-out: Minimum Inhibitory Concentration
- Procedure: The antimicrobial activity was determined by inoculation of the test microorganism into suitable growth media containing solutions of the compounds at concentrations of 100, 50, 10, 5, 1.0, 0.5 and 0.1 μg/ml. […] After incubation the antimicrobial activity was recorded as the Minimal Inhibitory Concentration (M.I.C.), i.e., the lowest concentration preventing macroscopically visible growth, for each test compound against each organism. […]
REPORTED METRIC: MIC (µg/mL)
Just the number please, in µg/mL, no unit attached.

* CCCCCCCCCCCCCCCCn1c(C)cc(C)[n+]1C | 10
* C=CCn1c(C)cc(C)[n+]1CCCCCCCCCCCCCCCC.[Br-] | 5
* CCCCCCCCCCCC[n+]1c(C)cc(C)n1Cc1ccc(Cl)cc1.[Br-] | 5

Query: Entry CCCCCCCCCCCCCC[n+]1c(C)cc(C)n1Cc1ccc([N+](=O)[O-])cc1.[Br-] : reported MIC = ?
Reply: 5

Query: Next record, please: CCCCCCCCCCCCn1ccc[n+]1C
Reply: 50

Query: Next record, please: CCCCCCCCCCCC[n+]1c(C)cc(C)n1Cc1ccc(Cl)cc1Cl.[Br-]
Reply: 1

Query: Next record, please: CCCCCCCCCCCCCCn1ccc[n+]1C
Reply: 5

Query: Next record, please: CCCCCCCCCCCCCCCCn1ccc[n+]1C
Reply: 5

Query: Next record, please: CCCCCCCCCCCCn1c(C)cc(C)[n+]1C
Reply: 50

Data origin: patent US4207326A
